Sourced from PubChem BioAssay AID492973

test_name: malaria lysate leucine aminopeptidase inhibition – cell lysate, fluorescence, Plasmodium falciparum lysate, powder samples, late-stage follow-up (AID 492973)
condition_parameters: P. falciparum cell lysate, H-Leu-NHMec fluorescence; at 5 µM; stronger effect = higher value
measurement_type: inhibition (%)
Give bare numbers, in %.

>  <smiles_str>
COC(=O)c1c(-c2ccco2)csc1NC(=O)[C@H]1CC=CC[C@H]1C(=O)O

>  <measurement_type>
inhibition

>  <value_units>
%

>  <observed>
51

$$$$
>  <smiles_str>
COC(=O)c1c(-c2cc(C)ccc2C)csc1NC(=O)[C@@H]1CC=CC[C@@H]1C(=O)O

>  <measurement_type>
inhibition

>  <value_units>
%

>  <observed>
64

$$$$
>  <smiles_str>
CCOC(=O)c1c(-c2cccc(C)c2)csc1NC(=O)[C@H]1CC=CC[C@H]1C(=O)O

>  <measurement_type>
inhibition

>  <value_units>
%

>  <observed>
26

$$$$
>  <smiles_str>
COc1ccc(-c2cc(=O)[nH][nH]2)cc1OC

>  <measurement_type>
inhibition

>  <value_units>
%

>  <observed>
8

$$$$

Please find the next compound below.
input: Please look at this compound and report its inhibition: S=c1nc(-c2cccc(Cl)c2)[nH][nH]1
output: 22
